Cited source for all entries: patent US20220098319A1

# test_target: T1, cynomolgus monkey CD73 (on transfected CHOK1 cells) (cynomolgus monkey, UniProt A0A2K5V5U7 27-549)
# T1 construct: whole, on cells; also called CHOK1-cCD73; CHOK1-CCD73
# T1 sequence: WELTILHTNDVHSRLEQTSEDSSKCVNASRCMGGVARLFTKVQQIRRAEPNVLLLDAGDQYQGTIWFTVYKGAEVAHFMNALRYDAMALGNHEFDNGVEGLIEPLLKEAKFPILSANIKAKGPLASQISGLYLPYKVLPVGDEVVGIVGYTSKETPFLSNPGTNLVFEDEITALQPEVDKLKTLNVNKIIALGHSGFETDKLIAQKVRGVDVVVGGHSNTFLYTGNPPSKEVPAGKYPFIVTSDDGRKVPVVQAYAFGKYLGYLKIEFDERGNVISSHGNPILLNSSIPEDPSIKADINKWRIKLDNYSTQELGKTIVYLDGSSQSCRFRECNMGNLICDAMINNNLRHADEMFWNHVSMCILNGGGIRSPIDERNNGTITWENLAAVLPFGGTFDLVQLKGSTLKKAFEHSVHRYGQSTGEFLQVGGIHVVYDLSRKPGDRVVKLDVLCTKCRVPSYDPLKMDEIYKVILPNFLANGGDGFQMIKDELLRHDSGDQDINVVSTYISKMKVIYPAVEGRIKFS
# assay_text: FACS on CHOK1-cCD73 cells
pEC50: −log10 of the molar value.
The binders listed here are annotated with their pEC50.
assay_metric: pEC50

[[record]]
binder = "mab020xhIgG1TM (clone 24D6B4), mouse-human chimeric anti-CD73 antibody (antibody, V domains shown, also called mAb020 chimeric antibody) VH: EVQLQQSGPELVKPGASVKIPCKASGYTFTDYNMDWVKQRHGKSLEWIGDINPNNGGTVYNQKFKGKATLTVDKSSNTAYMELRSLTSEDTAVYYCARISGTGYWYFDVWGTGTTVTVSS VL: DIQMTQSPASLSVSVGETVTITCRASENIYSNLAWYQQKQGKSPQLLVYGATNLADGVPSRFSGSDSGTQYSLKINSLQSEDFGSYYCQHFWGTPWTFGGGTKLEIK"
prefix_operator = "="
val = 9.15

[[record]]
binder = "mab034xhIgG1TM (clone 60G1C8), mouse-human chimeric anti-CD73 antibody (antibody, V domains shown, also called mAb034 chimeric antibody) VH: DVQLQESGPGLVKPSQSLSLTCSVTGYSITSRYYWNWIRQFPGNKLEWMGYMTYDGTNNYNPSLTNRISITRDTSKNQFFLKLNSVTAEDTATYFCARGGWDPFDYWGQGTTLTVSS VL: DIQMTQSPAALSASVGETVTITCRASDNIYSYLAWYQQKQGKCPQLLVKNAKTLAEGVPSRFSGSGSGTQFSLRINSLQPDDFGTYYCQHYYGTPLTFGAGTKLELK"
prefix_operator = "<"
val = 8.00

